Reference source for all entries: patent US20250162973A1

ASSAY_EXPLANATION: Maximum tolerated dose (MTD) determination, general toxicity and body weight
Assay type: in vivo
ASSAY_CONDITIONS: both sexes, mouse, in vivo, iv; single i.v. injection, ICR mice
REPORTED_ENDPOINT: MTD at 14 day (mg/kg)
Give bare numbers, in mg/kg.

Q: Which measured MTD at 14 day value corresponds to CCCC(=O)c1c(O)c(Cc2c(O)c(Cc3c(O)c(C)c(OC)c(C(=O)CCC)c3O)c(O)c(C(=O)[C@@H](C)CC)c2O)c(O)c(C)c1OC ?
Ans: 12.8
